property-name: melting point

compound | property-name | result
CN(Cc1ccccc1)c1nc(N2CCC(NCC(c3ccccc3)c3ccccc3)CC2)nc2c(N3CCOCC3)ncnc12 | melting point | 106 to 108 °C
O=C(O)CN1CCC(n2nc(-c3c(-c4ccccc4)nn4ccccc34)ccc2=O)C1=O (configuration not stated) | melting point | 250 to 251 °C
NC(=O)c1cccc(-c2ccc(Cl)c3cc(Cc4cc(F)cc(Cl)c4)sc23)c1 | melting point | 169 to 170 °C
CCN1C(=O)C(CCN2CCN(c3ccccc3OC)CC2)Sc2ccccc21 (configuration not stated) | melting point | 142 to 144 °C
O=C(N[C@@H](CCO)C(=O)O)OCc1ccccc1 | melting point | 125 to 128 °C
COC(=O)c1cc2cc(C(=O)c3cccc(CC#N)c3)sc2s1 | melting point | 184 °C
CC1(C)C(=O)Nc2ccc(C3=NNC(=O)C4CC34)cc21 (configuration not stated) | melting point | 334 to 335 °C
c1ccc(CN(Cc2ccccc2)C2CCC3(CC2)OCCO3)cc1 | melting point | > 95 °C
Fc1cc(F)c2c(c1)C[C@@H](n1ccn(CCc3ccccc3)c1=S)CC2 | melting point | 131 to 133 °C
CCc1cc2cc(O)c(Cl)c(Cl)c2s1 | melting point | 69 to 70 °C
CCOC(=O)CCCCc1ccc(OCc2nc(-c3ccccc3)oc2C)cc1 | melting point | 57 to 58 °C
Clc1ccc2c(c1)N(c1ncnc3c(Cl)cccc13)CC2 | melting point | 190 °C

====

property-name: melting point

compound | result
CC(C)(C)OC(=O)N1CCN(c2ccc3[nH]c(S)nc3c2)CC1 | 219 to 220 °C
CC/C(CO)=C(/c1ccccc1)c1ccc(O)cc1 | 112 to 116 °C
Nc1ccc(OC2CCN(C(=O)OCc3ccccc3)C2)cc1CS(=O)(=O)c1cccc2ccccc12 (stereo not given) | 162 to 164 °C
CCc1nc2c(cnn2CC)c(NC2CCOCC2)c1CNC(=O)c1cc(C)cc(C(=O)NCc2ccc(OC)c(-c3cccc(C=O)c3)c2)c1 | 117 to 119 °C
O=C1CCC(C(=O)N2CCC(Cc3ccccc3)CC2)N1 (stereo not given) | 160 to 161 °C
O=c1[nH][nH]c(C(F)(F)F)c1Cc1ccc2ccccc2c1 | 165 to 167 °C
C[Si](C)(C)C#Cc1ccc2c(c1)C(c1ccccc1F)=NCc1c(C(=O)OCC(F)(F)F)ncn1-2 | 220 to 221 °C
COc1ccc(C(=NO)c2ccc(Cl)cc2)c(O)c1 | 159 °C
Cc1cc(=O)[nH]nc1-c1ccc(-c2n[nH]c(=O)cc2C)cc1 | > 250 °C
COc1cc(F)ccc1C(F)C1CCCCn2c1nc(-c1ccncn1)cc2=O (racemic) | 228 to 230 °C
COc1ccc(NC(=O)c2c(Cl)cccc2Cl)cc1OC1CCCC1 | 184 to 185 °C
Nc1nc2ccc(C(F)(F)C(F)(F)F)cc2s1 | 100 °C
Cc1cccc(CN2CCc3ccc(C(=O)CCC(=O)N4CCC(c5ccc(Cl)cc5)CC4)cc3CC2)c1 | 127 to 128 °C
O=C(O)c1ccc2c(c1)Sc1ccccc1NC2=O | 362 to 364 °C
Cc1cccc(CC(=O)NC(C)C)c1NC(=O)c1cc(C(F)(F)F)nn1-c1ncccc1Cl | 206 to 207 °C
COCc1cccc2c1ccn2S(=O)(=O)c1ccc(C)cc1 | 85.5 to 89 °C
CCCS(=O)(=O)c1cc([C@H]2C[C@H](c3cc(OC)c(OC)c(OC)c3)CO2)cc(OC)c1OCc1ccccc1 (relative stereo) | 176 to 177 °C
O=C(O)c1cc(NS(=O)(=O)c2ccc([N+](=O)[O-])cc2)ccc1O | 239 to 240 °C
CN(C)C(=N[N+](=O)[O-])N(C)Cc1cnc(Cl)s1 | 101 to 102 °C
O=c1n(CCCCN2CCN(c3cccc(Cl)c3)CC2)nc2ccccn12 | 122 to 123 °C

====

Measured melting point values are reported for all entries that follow.

compound | melting point
CCCCCc1cc2c(=O)oc(C(=O)OCC)nc2s1 | 69.6 to 70.5 °C
O=C(Nc1ccc(I)cc1)c1ccncc1 | 245 to 250 °C
Cc1c(Br)sc2cc(C(=O)Cn3ccnc3)ccc12 | 184 to 186 °C
CC(C)C(CN1CCC(Nc2nc3ccccc3n2-c2cccc3c2NCCC3)CC1)NCc1ccccc1 (stereo unspecified) | 126 °C
Nc1nc2ccc(S(=O)(=O)n3c(CCC(=O)O)cc4cc(C(F)(F)F)ccc43)cc2s1 | > 250 °C
O=c1c2ccccc2nc(CCc2c[nH]c3ccccc23)n1-c1ccccc1 | 193 to 194 °C

====

compound | melting point
O=C(O)c1cccnc1NCc1ccc(Cl)cc1 | 240 to 242 °C
CS(=O)(=O)c1ccc(-c2[nH]c3ccccc3c2-c2ccc(Cl)cc2)cc1 | 198 to 200 °C
CCOc1ccc([N+](=O)[O-])cc1I | 81 to 83 °C
O=[N+]([O-])c1cccc2c1nc(-c1c(F)cccc1F)n2Cc1c(F)cccc1F | 168 to 170 °C
Cc1cc(C(C)(C)C)c(O)c2c1C1CCCCC1C2=O (configuration not stated) | 77 to 78 °C
Cn1ncc(N)c1C(N)=O | 158 to 160 °C
CCOCOc1cc(F)ccc1-c1cc(-c2cccc([N+](=O)[O-])c2)c(C#N)c(NC(=O)c2cccs2)n1 | 166 to 167 °C
CCOc1cc2ncc(Nc3cccc(F)c3)nc2cc1OCC | 193 °C
CCC1(c2ccc3cc(OC)ccc3c2)OC(C(=O)OC)C(C(=O)OC)O1 (configuration not stated) | 72 to 73 °C
Nc1c(-c2csc(-c3ccncc3)n2)c(=O)[nH]c2ccc(N3CCCCC3)cc12 | 199 to 202 °C
Cn1nc(C#N)c(Nc2ccc(C(F)(F)F)cc2[N+](=O)[O-])n1 | 116 to 117 °C
Cc1ccc(CN2C(=O)c3cccc4cccc2c34)cc1 | 108 to 110 °C

====

mol-smiles | melting point (°C)
CCCCOc1ccc(S(=O)(=O)C2(C(=O)NO)CCN(C)CC2)cc1 | 118
C/C=C/C=C(\C[C@H](N)C(=O)O)C(=O)O | 190

====

molecule | melting point
Cc1c(O)cc2c(c1Br)[C@H](O)[C@H](N1CCC(O)(c3ccc(F)cc3)CC1)CO2 (relative stereo) | 196 °C
CC(C)(COc1ccc(O)c(C(N)=O)c1)[N+](=O)[O-] | 145 to 148 °C
O=C(c1nc(-c2ccccc2)nc2ccccc12)N1CCCC1 | 153 °C
Cc1cc(OCc2sc(-c3ccc(C(F)(F)F)cc3)nc2C)ccc1OC(C)(C)C(=O)O | 154 °C
Cc1nc2ccc(S(=O)(=O)n3c(COC(C)C(=O)O)cc4cc(C(F)(F)F)ccc43)cc2s1 (stereo not drawn) | 146 to 148 °C
CN(C)C(=O)c1ccc2ccccc2c1/C=C/c1ccccc1 | 114 to 116 °C
CN(Sc1nc2ccccc2s1)C(=O)Oc1cccc2c1OC(C)(C)C2 | 92 to 93 °C
CCc1c(-c2ccc(OC)cc2)c2c3c(c4cc(OC)cc1n42)C(=O)OC3=O | 249 to 251 °C
COC(=O)c1cccc2[nH]ncc12 | 153 to 155 °C
CN(O)C(=O)Cc1ccc2c(c1)C(=O)c1ccccc1CO2 | 118 to 120 °C
COC(=O)c1cc(OC)c([N+](=O)[O-])cc1NC(C)=O | 141 to 143 °C
COc1ccc2cc(C(C)COS(N)(=O)=O)ccc2c1 (stereo not drawn) | 112 to 115 °C
O/N=C1/c2ccccc2OC12CCCCCC2 | 104 to 106 °C

====

Measured melting point values are reported for all entries that follow.
property-name: melting point

compound | result
CCn1cc(C(=O)O)c(=O)c2cc(F)c(-c3ccncc3)nc21 | 286 to 288 °C
CCN(CC)C(=O)c1cc(-c2ccc(Cl)cc2)c2ccsc2c1 | 135 °C
CCCCCCCC1=CCC(c2cc(F)c(F)c(F)c2)C=C1 (configuration not stated) | 14 °C
Cc1cc(O)c(S(=O)Cc2ccccc2F)c(=O)o1 (configuration not stated) | 115 to 116 °C
CCOC(=O)N1CCC(Nc2nc3ccccc3n2Cc2ccccn2)CC1 | 162 °C
O=C(O)c1cc(S(=O)C(F)(F)F)c(Cl)cc1Cl (configuration not stated) | 176 to 178 °C
Cc1oc(-c2ccccc2)nc1COc1ccc(CON=C(CCCCCCC(=O)O)c2ccccc2)cc1 | 88 to 89 °C
CC(C)C[C@H](NC(=O)OC1CCCCC1)C(=O)N[C@@H](Cc1ccccc1)C(=O)CSCc1ccco1 | 102 to 103 °C
Cc1cccc2c1nc(COc1ccc(Cl)cc1)n2CCC(Cc1ccccc1)C(=O)N1CCCCC1 (configuration not stated) | 93.5 to 95 °C
Cc1c(-c2ccc(O)cc2)n(Cc2ccc(OCCN3CCCCCC3)cc2)c2ccc(O)cc12 | 168 to 171 °C
CCCc1nc2c(N)nc3cc(OCc4ccccc4)ccc3c2s1 | 175 to 178 °C
CC(=O)OC(c1ccc(Cl)c2nc3n(c12)CCCN3c1ccc(Cl)cc1Cl)C1CC1 (configuration not stated) | 208 to 210 °C
